# solubility values compiled below
ASSAY: Assessment of solubility: HT solubility in pION buffer, UV spectrophotometry
CONDITION_CONTEXT: pH 6.8, aqueous buffer, kinetic from dmso stock, Solubility (pH 6.8), pH 6.8
# number only, unit µg/mL dropped from output

// worked examples, solubility included
[[record]]
compound_string = "Cc1ccc(OCc2ccc(CN3CCN(C(=O)C4CC4)CC3)cc2C#N)c(-c2csc(N3C[C@H]4CC[C@@H](C3)[C@H]4C(=O)O)n2)c1"
units = "µg/mL"
value = 1.9

[[record]]
compound_string = "COC[C@]1(C(=O)O)[C@@H]2CC[C@H]1CN(c1nc(-c3cc(C)ccc3OCc3ccc(C(=O)N4CCCCC4)cc3C)cs1)C2"
units = "µg/mL"
value = 8.2

[[record]]
compound_string = "Cc1ccc(OCc2ccc(C(=O)N3CCN(C)C(=O)C3)cc2C)c(-c2csc(N3CCC(C(=O)O)CC3)n2)c1"
units = "µg/mL"
value = 69

[[record]]
compound_string = "Cc1ccc(OCc2ccc(C(=O)N3CCCCC3)cc2C)c(-c2nc(N3C[C@H]4CC[C@@H](C3)[C@H]4C(=O)O)sc2F)c1"
units = "µg/mL"
value = 91

[[record]]
compound_string = "Cc1ccc(OCc2ccc(CN3CCO[C@H](C)C3)cc2C#N)c(-c2csc(N3C[C@H]4CC[C@@H](C3)[C@H]4C(=O)O)n2)c1"
units = "µg/mL"
value = 11

[[record]]
compound_string = "Cc1ccc(OCc2ccc(C(=O)N3CCCCC3)cc2C#N)c(-c2csc(N3C[C@H]4CC[C@@H](C3)[C@H]4C(=O)O)n2)c1"
units = "µg/mL"
value = 58


Turning to the following compound.
Query string: // solubility lookup, key: CC[C@]1(C(=O)O)[C@@H]2CC[C@H]1CN(c1nc(-c3cc(C)ccc3OCc3ccc(C(=O)N4CCCCC4)cc3C)cs1)C2
Result string: 13

====

ASSAY: Assessment of solubility: HT solubility in pION buffer, UV spectrophotometry
CONDITION_CONTEXT: pION system solution buffer, pH 4.5, pH 4.5, aqueous buffer, kinetic from dmso stock, Solubility (pH 4.5), pH 4.5 buffer, 16-19 h incubation, 1.0% DMSO
RECORDED_METRIC: solubility (µg/mL)
Record the value in µg/mL, omitting the unit from your answer.

[[record]]
compound = "Cc1cc(C(=O)N2CCCCC2)ccc1COc1ccccc1-c1csc(N2CCC(C(=O)O)CC2C(F)(F)F)n1 (centres unmarked) [Compound 130]"
units = "µg/mL"
value = 0.3

[[record]]
compound = "Cc1ccc(OCc2ccc(C(=O)N3CCOCC3)cc2C)c(-c2csc(N3CCC(C(=O)O)CC3)n2)c1 [Compound 49]"
units = "µg/mL"
value = 13

[[record]]
compound = "CNC(=O)CN(C)C(=O)c1ccc(COc2ccc(C)cc2-c2csc(N3C[C@H]4CC[C@@H](C3)[C@H]4C(=O)O)n2)c(C)c1 [Compound 347]"
units = "µg/mL"
value = 5.8


Query string: // solubility lookup, key: COCCCN(C)C(=O)c1ccc(COc2ccc(C)cc2-c2csc(N3C[C@H]4CC[C@@H](C3)[C@H]4C(=O)O)n2)c(C)c1 [Compound 338]
Result string: 0.13

Query string: Lookup Cc1ccc(OCc2ccc(CN3CCS(=O)(=O)CC3)cc2C)c(-c2csc(N3CCC(C(=O)O)C(C)C3)n2)c1 (centres unmarked) [Compound 204]
Result string: 0.35

Query string: What about this compound? Cc1cc(CN2CCOCC2)ccc1COc1ccc(C#N)cc1-c1csc(N2CC3CCC(C2)C3C(=O)O)n1 (centres unmarked) [Compound 86]
Result string: 3.5

Query string: Repeat with Cc1cc(CN2CCS(=O)(=O)CC2)ccc1COc1ccccc1-c1csc(N2CCC(C(=O)O)CC2C(F)(F)F)n1 (centres unmarked) [Compound 152]
Result string: 0.3

Query string: Can you check Cc1cc(CN2CCOCC2)ccc1COc1ccc(F)cc1-c1csc(N2CC3CCC(C2)C3C(=O)O)n1 (centres unmarked) [Compound 77] next?
Result string: 22

Query string: Please answer likewise for Cc1ccc(OCc2ccc(C(=O)N(C)Cc3cncn3C)cc2C)c(-c2csc(N3C[C@H]4CC[C@@H](C3)[C@H]4C(=O)O)n2)c1 [Compound 331]
Result string: 42

Query string: Moving on to Cc1ccc(OCc2ccc(C(=O)N3CCCCC3)cc2C)c(-c2csc(N3C[C@@H]4[C@H](C3)[C@@H]4C(=O)O)n2)c1 [Compound 243]
Result string: 1.2

Data origin, for the record: patent US8815857B2
